B1: CPEB3 Ribozyme (parent)
chain: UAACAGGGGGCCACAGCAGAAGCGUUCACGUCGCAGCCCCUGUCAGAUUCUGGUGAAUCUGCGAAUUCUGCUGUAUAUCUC

Variants of: B1
test_summary: self-cleavage, relative activity (ratio to wild type); higher = more cleavage; in vitro, sequencing
Consider the following variants; for each one, report its self-cleavage.
One number for each entry.

Recorded results for 3 variants are shown here.
• UAACAGGGGGCCACAGCAGAAGCGUUCACGUCGCAGCCACUGUCAGACUCUGGUGAAUCUGCGAAUUCUGCUGUAUAUCUC = 0.12
• UAACAGGGGGCCACAGCAGAAGCGUUCACGUCGCAGCCCCUGUCAGAUUCUGGUGAAUCGGCGAGUUCUGCUGUAUAUCUC = 0.24
• UAACAGGGGGCCACAGCAGAAGCGUUCACGUCUCAGCCCCUGUCAGAUUCUGGUGGAUCUGCGAAUUCUGCUGUAUAUCUC = 0.29

Give self-cleavage for each of the items listed below.
1. UUACAGGGGGCCACAGCAGAAGCGAUCACGUCGCAGCCCCUGUCAGAUUCUGGUGAAUCUGCGAAUUCUGCUGUAUAUCUC
2. UGACAGGGGGCCACAGCAGAAGCGUUAACGUCGCAGCCCCUGUCAGAUUCUGGUGAAUCUGCGAAUUCUGCUGUAUAUCUC
3. UAACGGGGGGCCACAGCAGAAGCGUUCACGUCGCAGCCCCUGUCAGAUUCUGGUGAAUCUGCGAAUUCGGCUGUAUAUCUC
4. UAACAGGUGGCCACAGCAGAAGCGUUCACGUCGCAGCCCCUGUCAGAUUCUGGUGAAUCUGCGAAUUCUGCCGUAUAUCUC
5. UAACAUGGGGACACAGCAGAAGCGUUCACGUCGCAGCCCCUGUCAGAUUCUGGUGAAUCUGCGAAUUCUGCUGUAUAUCUC

(A)
0.09
0.36
0.49
0.15
0.16

Give self-cleavage for each of the items listed below.
1. UAACAGGAGGCCACAGCAGAAGCGUUCACGUCGCAGCCCCUGUCAGAUUCUGGUGAAUCUGCGAAUUCUGCUGUAUUUCUC
2. UAACAGGGGGCCACAGCAGAAGCGUUCACGUCUCAGCCCCUGUCAGAUUCUGGUGAAUCUGCGAAUUCUGCCGUAUAUCUC
3. UGACAGGGGGCCACAGCAGAAGCGUUCACGUCGCAGCCCCUGUCAGAUUCUGGUGAAUCUGCGAAUUCUGCUGUAUAUCCC
4. UAACUGGGGGCCACAGCAGAAGCGUUCACGUCGCAGCCCCUGUCAGAUUCUGGUGAAUCUGCGAAUUCUGCUGUAUAACUC
5. UAACAGGGGGCCACAGCAGAAACGUUCUCGUCGCAGCCCCUGUCAGAUUCUGGUGAAUCUGCGAAUUCUGCUGUAUAUCUC
6. UAACGGGGGGCCACAGCAGAAGCGUUCACGUCGCAGCCCCUGUCAGAUUCUGGUGAAUCUACGAAUUCUGCUGUAUAUCUC
7. UAGAAGGGGGCCACAGCAGAAGCGUUCACGUCGCAGCCCCUGUCAGAUUCUGGUGAAUCUGCGAAUUCUGCUGUAUAUCUC
8. UAACAGGGGGCCACAGCAGAAGCGUUCACGUCGCAGCCCCUGUCAGACUCUGAUGAAUCUGCGAAUUCUGCUGUAUAUCUC

(A)
[0.18, 0.19, 0.69, 1.15, 0.12, 0.49, 1.17, 0.69]

Give self-cleavage for each of the items listed below.
1. UAACAGGGGGCCACAGCAGAGGCGUUCACGUCGCAGCCCCUGUCAGAUUCUGGUGAAUCUGCGAGUUCUGCUGUAUAUCUC
2. UAACAGGGGGCCACAGCAGAAGCGUUCACGUCGCAGCCCCUGUUAGAUUCUGGUGAAUCCGCGAAUUCUGCUGUAUAUCUC
3. UAACAGGGGGUCACAGCAGAAGCGUUCACGUCGCAGCCCCUGUCAGAUUCCGGUGAAUCUGCGAAUUCUGCUGUAUAUCUC
4. UAACAGGGGGCCACAGCAGAAGCGUGCACGUCGCAGCCCCUGUCAGAUUCUGGUGAAUCCGCGAAUUCUGCUGUAUAUCUC
5. CAACAGGGGGCCACAGCAGAAGCGUUCAAGUCGCAGCCCCUGUCAGAUUCUGGUGAAUCUGCGAAUUCUGCUGUAUAUCUC
6. UAACAGGGGUCCACAGCAGAAGCGUUCACGUCGCAGCCCCUGUCAGAUUCUGGCGAAUCUGCGAAUUCUGCUGUAUAUCUC
7. UAACAGGGUGCCACAGCAGAAGCGUUCUCGUCGCAGCCCCUGUCAGAUUCUGGUGAAUCUGCGAAUUCUGCUGUAUAUCUC

(A)
1: 0.28; 2: 0.52; 3: 0.44; 4: 0.11; 5: 0.32; 6: 0.34; 7: 0.13

Give self-cleavage for each of the items listed below.
1. UAACAGGGGGCCACAGCAGAUGCGUUCACGUCGCAGCCCCUGUCAGAUUCUGGUGAAUCUGCGAAUUCUGUUGUAUAUCUC
2. UAACAGGGGGCCACAGCAGAAGCGUUCACGUUGCAGCCCCUGUCAGAUUCUGGUGAAUCUGCGAAUUCUGCUGUAUAUCUU
3. UAACAGGGGGCCACAGCAGAAGCGUUCACGUCGCAGCCCCAGUCAGAUUCUCGUGAAUCUGCGAAUUCUGCUGUAUAUCUC
4. UAACAGGGGGCCACAGCAGGAGCGUUCACUUCGCAGCCCCUGUCAGAUUCUGGUGAAUCUGCGAAUUCUGCUGUAUAUCUC
5. UAACAGGGGGCCACAGCAGAAGCGUUCACGUCGCUGCCCCUGUCAGAUUCUGGUGAAUCUGCGAAUUCUGCUGUACAUCUC
6. UAACAGGGGGCCACAGCAGAAGCGUUCACGUCGCAGCCCCUGUCAGAUUCUGGUGAAUCUGCGAAUUCCGCUGUAUGUCUC

(A)
1: 0.16; 2: 0.37; 3: 0.67; 4: 0.25; 5: 0.52; 6: 0.67
